Just for reference, PubChem BioAssay is where these values come from.

test: inhibitors of TNFa-induced NFkB p65 translocation, primary screen, imaging, HUVEC, MLSMR starter and 10KST1 sets (AID 438); conditions: HUVEC TNFa-induced p65 nuclear translocation; measured here: nuclei count (cytotoxicity indicator), at 2.08 µM;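 note: compound added about 3h40 before a 20 min TNFalpha stimulation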
Listed here are molecules together with their documented cell count.

# MOLECULE, cell count
measured = [
    ("O=C(CCCn1c(=O)c2sccc2n(Cc2ccc(F)cc2)c1=O)NCc1ccco1", 417),
    ("O=c1c2cn[nH]c2nc(SCc2ccc3c(c2)OCCO3)n1-c1ccccc1", 488),
    ("Cc1ccc(Nc2cc(C)nc3nnnn23)cc1", 415),
    ("O=C(Nc1nc2ccc(S(=O)(=O)N3CCCC3)cc2s1)C1CCCO1 (configuration not stated)", 504),
    ("COc1ccccc1NC(=O)C(O)C(O)C(=O)Nc1ccccc1OC (configuration not stated)", 350),
    ("COc1ccccc1N(CC(=O)NCc1ccccc1)S(C)(=O)=O", 665),
    ("O=C(COc1ccccc1Cl)N1CCCC1", 236),
    ("Nc1nonc1-c1noc(CCCCCN2C(=O)c3ccccc3C2=O)n1", 221),
    ("N#CCCn1cnc2ccccc21", 332),
    ("CCOC(=O)c1c(C)oc2c1c(C=NCc1ccccn1)c(O)c1ccccc12", 738),
    ("CCOC(=O)c1nnn(CC(=O)Nc2cccc(OC)c2)c1C(=O)OCC", 395),
    ("CCCCn1c(CN2CCN(CCO)CC2)nc2ccccc21", 611),
]
